test: Half life in Sprague-Dawley rat at 1.1 mg/kg, iv; format: ADME, organism-based; design: dose 1.1 mg/kg, route intravenous; settings: in vivo
experimental_readout: half-life
Answer format: number, then unit.

Requested field: half-life. Item: O=C(O)Cn1ccc2c(OCCCN(Cc3cccc(C(F)(F)F)c3Cl)CC(c3ccccc3)c3ccccc3)cccc21
81 min

====

Exercise: for every item that follows, state its recorded EC50.
target: Oxysterols receptor LXR-beta (Homo sapiens); experiment: Agonist activity at LXRbeta by FRET assay
Sequence (P55055 whole entry): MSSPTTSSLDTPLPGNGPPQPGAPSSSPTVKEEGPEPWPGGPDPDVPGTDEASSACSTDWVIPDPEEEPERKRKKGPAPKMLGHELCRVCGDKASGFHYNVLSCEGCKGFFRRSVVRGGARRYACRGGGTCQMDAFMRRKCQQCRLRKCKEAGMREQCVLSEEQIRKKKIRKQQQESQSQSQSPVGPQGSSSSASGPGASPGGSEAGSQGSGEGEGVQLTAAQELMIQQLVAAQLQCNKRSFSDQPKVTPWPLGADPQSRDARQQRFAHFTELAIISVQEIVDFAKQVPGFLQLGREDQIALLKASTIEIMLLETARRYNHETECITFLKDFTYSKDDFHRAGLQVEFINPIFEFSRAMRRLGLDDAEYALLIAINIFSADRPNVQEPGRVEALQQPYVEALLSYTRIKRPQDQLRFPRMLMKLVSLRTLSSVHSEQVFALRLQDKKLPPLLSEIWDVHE
Answers are plain numbers, in nM.

Example results:
FC(F)(F)c1cccc(CN(CCCOc2ccc3[nH]ccc3c2)CC(c2ccccc2)c2ccccc2)c1Cl ... 23
O=C(O)Cn1ccc2c(OCCCN(Cc3cccc(C(F)(F)F)c3Cl)CC(c3ccccc3)c3ccccc3)cccc21 ... 4

// for each compound below, give its EC50
1. O=C(O)Cc1cccc(OCCCN(Cc2cccc(C(F)(F)F)c2Cl)CC(c2ccccc2)c2ccccc2)c1
2. Cc1cc(C)c2c(OCCCN(Cc3cccc(C(F)(F)F)c3Cl)CC(c3ccccc3)c3ccccc3)n[nH]c2n1

[25, 510]

====

assay: Cmax in Sprague-Dawley rat at 2.1 mg/kg, po; assay type: ADME, organism-based; design: dose 2.1 mg/kg, route oral; conditions: in vivo
experimental_readout: Cmax (ng/mL)
Give bare numbers, in ng/mL.

Requested field: Cmax. Item: O=C(O)Cn1ccc2c(OCCCN(Cc3cccc(C(F)(F)F)c3Cl)CC(c3ccccc3)c3ccccc3)cccc21
1810

====

assay: Volume of distribution at steady state in Sprague-Dawley rat at 1.1 mg/kg, iv or 2.1 mg/kg, po; format: ADME, organism-based; settings: in vivo, read-out: Vdss
experimental_readout: Vd (L/kg)
Give bare numbers, in L/kg.

Requested field: Vd. Item: O=C(O)Cn1ccc2c(OCCCN(Cc3cccc(C(F)(F)F)c3Cl)CC(c3ccccc3)c3ccccc3)cccc21
1.15

====

experiment: Half life in Sprague-Dawley rat at 2.1 mg/kg, po; format: ADME, organism-based; parameters: dose 2.1 mg/kg, route oral; conditions: in vivo
experimental_readout: half-life (h)
Numbers only, in h.

Requested field: half-life. Item: O=C(O)Cn1ccc2c(OCCCN(Cc3cccc(C(F)(F)F)c3Cl)CC(c3ccccc3)c3ccccc3)cccc21
2.9

====

target: UniProt Q13133; assay: Agonist activity at LXRalpha by FRET assay relative to GW-3965A; type: functional
Sequence (Q13133 whole entry): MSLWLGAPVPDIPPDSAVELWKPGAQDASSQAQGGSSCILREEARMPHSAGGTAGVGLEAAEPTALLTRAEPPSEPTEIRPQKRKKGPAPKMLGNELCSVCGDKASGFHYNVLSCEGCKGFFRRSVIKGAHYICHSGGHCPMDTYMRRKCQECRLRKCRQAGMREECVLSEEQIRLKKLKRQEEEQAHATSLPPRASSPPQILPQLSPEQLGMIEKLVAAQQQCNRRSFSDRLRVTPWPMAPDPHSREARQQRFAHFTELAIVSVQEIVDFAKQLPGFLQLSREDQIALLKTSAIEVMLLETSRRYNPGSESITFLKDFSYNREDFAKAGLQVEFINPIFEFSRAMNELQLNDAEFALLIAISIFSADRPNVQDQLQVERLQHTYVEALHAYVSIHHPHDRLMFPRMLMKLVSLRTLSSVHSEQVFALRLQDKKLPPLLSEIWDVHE
Rule: true for Activity not less than 20%, false for anything less.

Reference set, count: 5
Cc1cc(OCCCN(Cc2cccc(C(F)(F)F)c2Cl)CC(c2ccccc2)c2ccccc2)n2ncnc2n1 ... true
Cc1cc(OCCCN(Cc2cccc(C(F)(F)F)c2Cl)CC(c2ccccc2)c2ccccc2)n[nH]1 ... true
COC(=O)c1cc(OCCCN(Cc2cccc(C(F)(F)F)c2Cl)CC(c2ccccc2)c2ccccc2)no1 ... true
CS(=O)(=O)n1ccc2c(OCCCN(Cc3cccc(C(F)(F)F)c3Cl)CC(c3ccccc3)c3ccccc3)cccc21 ... true
FC(F)(F)c1cccc(CN(CCCOc2n[nH]c3ccccc23)CC(c2ccccc2)c2ccccc2)c1Cl ... false

Does FC(F)(F)c1cccc(CN(CCCOc2ccc3[nH]ccc3c2)CC(c2ccccc2)c2ccccc2)c1Cl have a reported Activity of at least 20%?
true

Does O=C(O)Cn1ccc2c(OCCCN(Cc3cccc(C(F)(F)F)c3Cl)CC(c3ccccc3)c3ccccc3)cccc21 have a reported Activity of at least 20%?
true

Does Cn1ccc2c(OCCCN(Cc3cccc(C(F)(F)F)c3Cl)CC(c3ccccc3)c3ccccc3)cccc21 have a reported Activity of at least 20%?
true

Does FC(F)(F)c1cccc(CN(CCCOc2cccc3[nH]ccc23)CC(c2ccccc2)c2ccccc2)c1Cl have a reported Activity of at least 20%?
true

Does COC(=O)Cc1c[nH]c2ccc(OCCCN(Cc3cccc(C(F)(F)F)c3Cl)CC(c3ccccc3)c3ccccc3)cc12 have a reported Activity of at least 20%?
false
